Molecular target: METTL3/14 (Homo sapiens, UniProt Q86U44)
Construct: The enzyme used was full-length his-tagged METTL3; His; made in house
Sequence (Q86U44 whole entry): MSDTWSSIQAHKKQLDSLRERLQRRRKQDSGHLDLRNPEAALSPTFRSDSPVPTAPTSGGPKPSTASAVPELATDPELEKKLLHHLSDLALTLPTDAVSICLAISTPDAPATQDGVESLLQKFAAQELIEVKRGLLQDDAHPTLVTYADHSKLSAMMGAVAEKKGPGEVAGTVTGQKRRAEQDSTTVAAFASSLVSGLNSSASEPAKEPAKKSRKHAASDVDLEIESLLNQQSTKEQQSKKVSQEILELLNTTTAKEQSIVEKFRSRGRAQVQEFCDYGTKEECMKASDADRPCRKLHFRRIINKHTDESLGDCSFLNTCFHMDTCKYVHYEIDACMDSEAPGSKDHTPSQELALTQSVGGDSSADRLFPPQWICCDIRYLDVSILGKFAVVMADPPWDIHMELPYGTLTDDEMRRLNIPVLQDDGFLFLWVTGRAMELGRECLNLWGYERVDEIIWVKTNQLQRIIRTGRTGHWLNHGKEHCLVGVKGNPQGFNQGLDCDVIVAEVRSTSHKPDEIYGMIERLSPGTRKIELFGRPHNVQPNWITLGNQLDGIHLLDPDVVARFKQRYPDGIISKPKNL
Sequence (Q9HCE5 whole entry partner): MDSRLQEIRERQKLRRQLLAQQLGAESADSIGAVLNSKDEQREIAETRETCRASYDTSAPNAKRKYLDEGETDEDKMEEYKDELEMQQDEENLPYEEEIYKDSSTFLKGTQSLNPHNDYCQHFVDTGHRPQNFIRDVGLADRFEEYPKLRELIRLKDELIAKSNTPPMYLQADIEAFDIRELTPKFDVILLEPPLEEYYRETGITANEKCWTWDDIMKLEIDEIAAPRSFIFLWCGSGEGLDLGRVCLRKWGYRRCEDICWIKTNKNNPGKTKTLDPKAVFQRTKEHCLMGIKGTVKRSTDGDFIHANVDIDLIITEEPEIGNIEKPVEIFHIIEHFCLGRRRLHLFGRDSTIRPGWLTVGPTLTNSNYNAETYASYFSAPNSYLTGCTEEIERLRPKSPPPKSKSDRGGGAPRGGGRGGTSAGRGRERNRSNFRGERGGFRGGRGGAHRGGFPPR
Experiment: METTL3/14 methyltransferase assay (METTL3_14 RFMS, RapidFire mass spectrometry)
Format: biochemical
Conditions: 5 nM METTL3/14, 0.2 μM RNA substrate, 0.5 μM SAM; lower limit of the assay IC50=5 nM; Compounds 266-351; read-out: METTL3_14 RFMS IC50
Structures can show the parent of a compound that is named as a salt.
The following compounds are shown together with reported IC50 values.
Report only the number, with the unit nM understood.

Return the recorded IC50 value; entry: Cc1ccc2nc(Cn3cnc(-c4cccc5[nH]ncc45)c3)cn2c1 [Example 329, formate]
1640

Return the recorded IC50 value; entry: CN(C)C(=O)c1cc(-c2cn(Cc3cn4cc(CNCC5CCC5)ccc4n3)nn2)c2cn[nH]c2c1 [Example 299]
112

Further cases:
Return the recorded IC50 value; entry: O=C(NCc1cn2cc(CNC[C@H]3C[C@H]4CC[C@@H]3C4)ccc2n1)c1cc(=O)n2ccccc2n1 [Compound 348]
9.02

Return the recorded IC50 value; entry: O=c1cc(-c2cn(Cc3cn4cc(CNCC5CCC5)ccc4n3)nn2)nc2ccccn12 [Example 342]
18.4

Return the recorded IC50 value; entry: NC1(CNCc2ccc3nc(Cn4cc(-c5ccc(F)c6[nH]ncc56)nn4)cn3c2)CCCC1 [Example 309]
120

Return the recorded IC50 value; entry: c1cc2[nH]ncc2c(-c2cn(Cc3cn4cc(CNCC5CCCCC5)ccc4n3)nn2)n1 [Example 325]
14.5

Return the recorded IC50 value; entry: CC(C)(C)CNCc1ccc2nc(Cn3cc(-c4cc(C5CC5)cc5[nH]ncc45)nn3)cn2c1 [Example 321]
13.2

Return the recorded IC50 value; entry: CCCCNCc1ccc2nc(CNC(=O)c3cc(=O)n4ccccc4n3)cn2c1 [Compound 283]
29.3

---

Molecular target: METTL3/14 (Homo sapiens, UniProt Q86U44)
Construct: The enzyme used was full-length his-tagged METTL3; His; made in house
Assay: METTL3/14 methyltransferase assay (METTL3_14 RFMS, RapidFire mass spectrometry)
Type: biochemical
Details: 5 nM METTL3/14, 0.2 μM RNA substrate, 0.5 μM SAM; lower limit of the assay IC50=5 nM; Compounds 266-351; read-out: METTL3_14 RFMS IC50
The following compounds are shown together with reported pIC50 values.
The quantity pIC50 is defined as the negative base-10 logarithm of the molar concentration.

Return the recorded pIC50 value; entry: Cc1ccc2nc(Cn3cc(-c4cccc5[nH]nc(N)c45)nn3)cn2c1
5.04

Return the recorded pIC50 value; entry: OCc1ccc2nc(Cn3cc(-c4cc(F)cc5[nH]ncc45)nn3)cn2c1
6.34

Return the recorded pIC50 value; entry: O=C(NCc1cn2cc(CNCC3CC4(CCC4)C3)ccc2n1)c1cc(=O)n2ccccc2n1
7.12

Return the recorded pIC50 value; entry: O=C(NCc1cn2cc(CNC[C@@H]3C[C@H]4CC[C@@H]3C4)ccc2n1)c1cc(=O)n2ccccc2n1
8.12

---

Target: METTL3/14 (Homo sapiens, UniProt Q86U44)
Construct: The enzyme used was full-length his-tagged METTL3; His; made in house
Experiment: METTL3/14 methyltransferase assay (METTL3_14 RFMS, RapidFire mass spectrometry)
Type: biochemical
Settings: 5 nM METTL3/14, 0.2 μM RNA substrate, 0.5 μM SAM; lower limit of the assay IC50=5 nM; Compounds 63-265; read-out: METTL3_14 RFMS IC50
The following compounds are shown together with reported pIC50 values.
The quantity pIC50 is defined as the negative base-10 logarithm of the molar concentration.

These recorded examples may help you get a feel for the data.
Return the recorded pIC50 value; entry: O=C(NCc1cn2cc(CNCc3ccccc3F)ccc2n1)c1cc(=O)n2ccccc2n1
7.08

Return the recorded pIC50 value; entry: O=C(NCc1cn2cc(CNCC3CCCOC3)ccc2n1)c1cc(=O)n2ccccc2n1 (centres unmarked)
7.10

Turning now to a further record.
Return the recorded pIC50 value; entry: O=C(NCc1cn2cc(C3COCCN3)ccc2n1)c1cc(=O)n2ccccc2n1 (centres unmarked)
5.56

---

Molecular target: METTL3/14 (Homo sapiens)
Construct: The enzyme used was full-length his-tagged METTL3; His; made in house
Experiment: METTL3/14 methyltransferase assay (METTL3_14 RFMS, RapidFire mass spectrometry)
Assay type: biochemical
Conditions: 5 nM METTL3/14, 0.2 μM RNA substrate, 0.5 μM SAM; lower limit of the assay IC50=5 nM; Compounds 63-265; read-out: METTL3_14 RFMS IC50
The following compounds are shown together with reported pIC50 values.
The quantity pIC50 is defined as the negative base-10 logarithm of the molar concentration.

Return the recorded pIC50 value; entry: O=C(NCc1cn2cc(CNCC3CCOCC3)ccc2n1)c1cc(=O)n2ccccc2n1
6.45

Return the recorded pIC50 value; entry: O=C(NCc1cn2cc(CNCc3ccc(F)cc3)ccc2n1)c1cc(=O)n2ccccc2n1
7.78

Return the recorded pIC50 value; entry: O=C(NCc1cn2cc(CNCCc3cccnc3)ccc2n1)c1cc(=O)n2ccccc2n1
6.84

Turning now to a further record.
Return the recorded pIC50 value; entry: NCCc1ccc2nc(CNC(=O)c3cc(=O)n4ccccc4n3)cn2c1
6.52

---

Test system: MOLM-13 cells
Experiment: MOLM13 CTG - analysis of cell proliferation (Cell Titre Glo)
Assay type: cell-based
Conditions: Homo sapiens, geometric mean, read-out: CTG MOLM13 cells IC50 GEOMEAN
measured property: IC50 (µM)
Report only the number, with the unit µM understood.

Return the recorded IC50 value; entry: Fc1ccc(-c2cn(Cc3cn4cc(CNCC5CCCCC5)ccc4n3)nn2)c2cn[nH]c12 [Example 307]
3.68

Return the recorded IC50 value; entry: O=C(NCc1cn2cc(CNCCC3CCC3)ccc2n1)c1cc(=O)n2ccccc2n1 [Compound 286]
12.3

Return the recorded IC50 value; entry: COc1ccc2[nH]ncc2c1-c1cn(Cc2cn3cc(CNCC4CCC4)ccc3n2)nn1 [Example 271]
1.17

Turning now to a further record.
Return the recorded IC50 value; entry: O=C(NCc1cn2cc(CNC3(c4ccccc4)COC3)ccc2n1)c1cc(=O)n2ccccc2n1 [Compound 89]
13.1

---

The following compounds are shown together with reported IC50 values.
Biological target: METTL3/14 (Homo sapiens, UniProt Q86U44)
Construct: The enzyme used was full-length his-tagged METTL3; His; made in house
Experiment: METTL3/14 methyltransferase assay (METTL3_14 RFMS, RapidFire mass spectrometry)
Type: biochemical
Conditions: 5 nM METTL3/14, 0.2 μM RNA substrate, 0.5 μM SAM; lower limit of the assay IC50=5 nM; Compounds 63-265; read-out: METTL3_14 RFMS IC50

These recorded examples may help you get a feel for the data.
Return the recorded IC50 value; entry: CC1(CNCc2ccc3nc(CNC(=O)c4cc(=O)n5ccccc5n4)cn3c2)CC1 [Compound 121]
16.8 nM

Return the recorded IC50 value; entry: O=C(NCc1cn2cc(CCNC3CCCCC3)ccc2n1)c1cc(=O)n2ccccc2n1 [Compound 236]
28.7 nM

Return the recorded IC50 value; entry: O=C(NCc1cn2cc(CCNCc3ccccc3)ccc2n1)c1cc(=O)n2ccccc2n1 [Compound 235]
111 nM

Turning now to a further record.
Return the recorded IC50 value; entry: O=C(NCc1cn2cc(CN3CCCCC3)ccc2n1)c1cc(=O)c2ccccc2o1 [Compound 219]
247 nM

---

Biological target: METTL3/14 (Homo sapiens)
Construct: The enzyme used was full-length his-tagged METTL3; His; made in house
Test: METTL3/14 methyltransferase assay (METTL3_14 RFMS, RapidFire mass spectrometry);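 note: recombinant His-tagged METTL3 with FLAG-tagged METTL14 from baculovirus, SAH product quantified by mass spectrometry against isotope-labelled internal standards, 60 min at room temperature, scaled between no-RNA and DMSO-only wells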
Assay type: biochemical
Conditions: 5 nM METTL3/14, 0.2 μM RNA substrate, 0.5 μM SAM; lower limit of the assay IC50=5 nM; Compounds 266-351; read-out: METTL3_14 RFMS IC50
The following compounds are shown together with reported pIC50 values.
The quantity pIC50 is defined as the negative base-10 logarithm of the molar concentration.

Return the recorded pIC50 value; entry: CC1CC(CNCc2ccc3nc(CNC(=O)c4cc(=O)n5ccccc5n4)cn3c2)C1 (centres unmarked) [Compound 290]
7.75

Turning now to a further record.
Return the recorded pIC50 value; entry: CC[C@H](C)CNCc1ccc2nc(CNC(=O)c3cc(=O)n4ccccc4n3)cn2c1 [Compound 293]
7.89

---

Tested on: MOLM-13 cells
Assay: MOLM13 CTG - analysis of cell proliferation (Cell Titre Glo)
Type: cell-based
Details: Homo sapiens, geometric mean, read-out: CTG MOLM13 cells IC50 GEOMEAN
The following compounds are shown together with reported pIC50 values.
The quantity pIC50 is defined as the negative base-10 logarithm of the molar concentration.

These recorded examples may help you get a feel for the data.
Report pIC50 from MOLM-13 cells testing of O=C(NCc1cn2cc(CCNC3CCCCC3)ccc2n1)c1cc(=O)n2ccccc2n1
4.93

Report pIC50 from MOLM-13 cells testing of O=C(NCc1cn2cc(CNCC3CCCC3)ccc2n1)c1cc(=O)n2ccccc2n1
5.30

Report pIC50 from MOLM-13 cells testing of Fc1ccc(-c2cn(Cc3cn4cc(CNCC5CCC5)ccc4n3)nn2)c2cn[nH]c12
5.74

Further cases:
Report pIC50 from MOLM-13 cells testing of O=C(NCc1cn2cc(CNCC3CCC3)ccc2n1)c1cccc2[nH]ncc12
4.96

Report pIC50 from MOLM-13 cells testing of O=C(NCc1cn2cc(CNCC3(O)CCC3)ccc2n1)c1cc(=O)n2ccccc2n1
5.14

Report pIC50 from MOLM-13 cells testing of O=C(NCc1cn2cc(CNCC34CC(F)(C3)C4)ccc2n1)c1cc(=O)n2ccccc2n1
6.18

Report pIC50 from MOLM-13 cells testing of c1cc2nc(Cn3cc(-c4cc(N5CCOCC5)cc5[nH]ncc45)nn3)cn2cc1CNCC1CCC1
5.43

Report pIC50 from MOLM-13 cells testing of CC1(C)CCN(Cc2ccc3nc(CNC(=O)c4cc(=O)n5ccccc5n4)cn3c2)CC1
5.61

Report pIC50 from MOLM-13 cells testing of O=C(NCc1ccc2nc(CNC(=O)c3cc(=O)n4ccccc4n3)cn2c1)c1ccccc1
4.89

Report pIC50 from MOLM-13 cells testing of CN(Cc1ccc2nc(CNC(=O)c3cc(=O)n4ccccc4n3)cn2c1)CC1CCCCC1
5.55
